Molecular target: BRAF V600E (Homo sapiens, UniProt P15056+Q96SW2, V600E)
Construct: knock-in of the HiBiT tag to the endogenous BRAF V600E locus; host or cells: A375.10 (A375 clonal line, CRISPR HiBiT knock-in at the endogenous BRAF V600E locus)
Sequence (P15056 whole entry V600E): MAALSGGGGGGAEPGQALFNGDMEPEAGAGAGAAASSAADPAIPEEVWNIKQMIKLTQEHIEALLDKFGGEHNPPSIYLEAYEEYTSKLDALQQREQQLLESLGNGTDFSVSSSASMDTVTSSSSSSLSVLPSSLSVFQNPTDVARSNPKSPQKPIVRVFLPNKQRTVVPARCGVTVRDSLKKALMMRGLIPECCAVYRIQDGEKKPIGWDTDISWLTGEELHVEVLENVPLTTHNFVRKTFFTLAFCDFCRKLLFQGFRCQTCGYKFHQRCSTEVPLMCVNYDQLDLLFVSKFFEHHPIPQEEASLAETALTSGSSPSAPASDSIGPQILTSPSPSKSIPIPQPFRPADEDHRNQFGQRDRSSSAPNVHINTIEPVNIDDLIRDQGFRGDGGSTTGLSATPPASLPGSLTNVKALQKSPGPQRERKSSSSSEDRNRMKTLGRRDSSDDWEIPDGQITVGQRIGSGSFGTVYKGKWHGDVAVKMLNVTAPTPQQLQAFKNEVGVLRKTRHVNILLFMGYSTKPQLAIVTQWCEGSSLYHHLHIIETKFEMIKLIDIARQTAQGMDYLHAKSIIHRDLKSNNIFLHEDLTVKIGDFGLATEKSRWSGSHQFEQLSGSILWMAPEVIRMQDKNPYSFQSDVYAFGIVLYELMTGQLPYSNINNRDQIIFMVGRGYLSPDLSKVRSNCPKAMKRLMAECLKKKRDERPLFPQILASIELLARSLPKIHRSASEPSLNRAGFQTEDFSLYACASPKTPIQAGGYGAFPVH
Sequence (Q96SW2 whole entry): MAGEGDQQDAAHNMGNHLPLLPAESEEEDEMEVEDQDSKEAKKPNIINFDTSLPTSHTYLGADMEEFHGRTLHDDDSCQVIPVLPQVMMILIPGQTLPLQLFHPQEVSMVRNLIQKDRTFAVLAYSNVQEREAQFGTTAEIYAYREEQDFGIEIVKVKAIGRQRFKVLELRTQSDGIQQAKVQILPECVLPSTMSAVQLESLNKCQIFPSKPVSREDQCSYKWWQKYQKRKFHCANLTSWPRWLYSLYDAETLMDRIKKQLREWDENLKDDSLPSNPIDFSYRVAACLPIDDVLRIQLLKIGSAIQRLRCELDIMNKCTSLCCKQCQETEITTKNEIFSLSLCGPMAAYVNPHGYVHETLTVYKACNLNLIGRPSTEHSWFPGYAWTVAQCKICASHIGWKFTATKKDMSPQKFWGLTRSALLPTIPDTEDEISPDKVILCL
Sequence (Q16531 whole entry partner): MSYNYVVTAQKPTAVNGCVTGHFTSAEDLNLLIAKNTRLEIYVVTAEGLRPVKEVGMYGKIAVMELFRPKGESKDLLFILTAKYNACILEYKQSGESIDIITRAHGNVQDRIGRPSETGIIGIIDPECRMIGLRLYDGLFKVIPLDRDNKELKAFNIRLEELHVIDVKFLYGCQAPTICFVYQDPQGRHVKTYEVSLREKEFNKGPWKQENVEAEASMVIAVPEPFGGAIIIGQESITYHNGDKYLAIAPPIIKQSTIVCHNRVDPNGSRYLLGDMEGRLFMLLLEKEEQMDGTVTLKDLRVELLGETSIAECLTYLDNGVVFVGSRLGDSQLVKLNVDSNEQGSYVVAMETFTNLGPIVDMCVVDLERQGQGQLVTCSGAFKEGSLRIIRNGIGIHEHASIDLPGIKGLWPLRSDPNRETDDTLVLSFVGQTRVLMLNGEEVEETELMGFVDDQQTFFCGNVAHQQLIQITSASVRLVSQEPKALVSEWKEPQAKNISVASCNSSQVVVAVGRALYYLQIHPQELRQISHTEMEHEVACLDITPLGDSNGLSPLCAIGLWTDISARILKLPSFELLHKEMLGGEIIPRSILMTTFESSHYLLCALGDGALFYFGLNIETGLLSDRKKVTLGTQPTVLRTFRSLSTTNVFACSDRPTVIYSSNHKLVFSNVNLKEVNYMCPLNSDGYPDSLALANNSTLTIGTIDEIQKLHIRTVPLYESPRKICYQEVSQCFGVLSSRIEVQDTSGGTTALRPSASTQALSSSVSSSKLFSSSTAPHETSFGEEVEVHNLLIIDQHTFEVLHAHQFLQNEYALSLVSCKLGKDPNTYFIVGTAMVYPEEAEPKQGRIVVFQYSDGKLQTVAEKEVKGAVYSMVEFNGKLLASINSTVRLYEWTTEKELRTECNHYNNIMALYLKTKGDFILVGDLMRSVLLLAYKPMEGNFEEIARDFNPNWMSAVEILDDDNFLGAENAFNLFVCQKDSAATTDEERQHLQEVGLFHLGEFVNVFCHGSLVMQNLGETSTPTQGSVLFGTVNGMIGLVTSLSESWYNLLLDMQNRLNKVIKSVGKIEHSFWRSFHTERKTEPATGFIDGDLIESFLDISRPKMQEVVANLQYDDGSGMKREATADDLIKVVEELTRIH
Assay: BRAF V600E HiBiT Degradation Assay
Type: cell-based
Conditions: read-out: HiBiT-Degradation A375.10 BRAF 2 hours Emax, A375.10 cells, BRAF V600E, 2 hours; residual protein remaining
Method: Compounds of this invention were tested for degradation of mutant BRAF V600E using the HiBiT assay, a luminescence-based assay for quantification of cellular protein levels using the Nano-Glo® HiBiT Lytic Detection System (Catalog No. N3050, Promega, Madison, WI USA). […] Data were analyzed with a 4-parameter logistic fit to generate sigmoidal dose-response curves. […]
quantity_kind: Emax

Any idea what Emax was measured for CCN(C)S(=O)(=O)Nc1ccc(F)c(C(=O)c2ccc3ncn([C@H]4COC5(CCN(C6CCC(c7cc8c(cc7F)c(N7CCC(=O)NC7=O)nn8C)CC6)CC5)C4)c(=O)c3c2)c1F (stereo partly drawn) ?
< 50%

Emax lookup needed for `CCN(C)S(=O)(=O)Nc1ccc(F)c(Oc2ccc3ncc([C@H]4COC5(CCN(C6CC7(C6)CN(c6cc8c(cc6F)c(N6CCC(=O)NC6=O)nn8C)C7)CC5)C4)nc3c2)c1C#N` , thanks.
50 to 90%

Sample CCN(C)S(=O)(=O)Nc1ccc(F)c(Oc2ccc3ncn(C4CC5(C4)CN(C4CCC(c6cc7c(cc6F)c(N6CCC(=O)NC6=O)nn7C)CC4F)C5)c(=O)c3c2)c1C#N (single isomer, unassigned) — what was its Emax?
50 to 90%

----------
Assay: Pharmacokinetics after 21 days dosing in the efficacy study (plasma, tumor and brain concentrations; plasma AUC at steady state), Example 14
Format: in vivo, female BALB/c nude mice
Conditions: mouse, plasma, po; 3 mg/kg p.o. BID x 21 days; 4 h; mean ± SEM; read-out: Concentration in Plasma
quantity_kind: concentration at 4 h (ng/mL)
Respond with the bare value in ng/mL.

Fill in the blank: the reported concentration at 4 h of `CCN(C)S(=O)(=O)Nc1ccc(F)c(Oc2ccc3ncn([C@H]4COC5(CCN(C6CC7(C6)CN(c6cc8c(cc6F)c(N6CCC(=O)NC6=O)nn8C)C7)CC5)C4)c(=O)c3c2)c1C#N` is ____.
3970

----------
Tumor Size on PG-D21 values by entry
Tested on: A375 human melanoma xenografts
Assay: Example 6 efficacy study in A375 human melanoma xenografts (tumor volume, T/C, TGI)
Assay type: in vivo, BALB/c nude mice
Conditions: 10 mg/kg, p.o., BID × 21 days; PG-D21; Mean ± SEM
Quick note: number first, unit second.

Guide cases for Tumor Size on PG-D21, answers given:
So what Tumor Size on PG-D21 did CCN(C)S(=O)(=O)Nc1ccc(F)c(Oc2ccc3ncn(C4CC5(CCN(C6CCC(c7cc8c(cc7F)c(N7CCC(=O)NC7=O)nn8C)CC6F)CC5)C4)c(=O)c3c2)c1C#N (single isomer, unassigned) get with A375 human melanoma xenografts?
15 ± 1 mm^3

Value wanted: Tumor Size on PG-D21 (A375 human melanoma xenografts) of entry Cn1nc(N2CCC(=O)NC2=O)c2cc(F)c(C3CCC(N4CCC5(CC4)CC(n4cnc6ccc(Oc7c(F)ccc(NS(=O)(=O)C8CCCC8)c7C#N)cc6c4=O)C5)CC3)cc21 (single isomer, unassigned)
73 ± 18 mm^3

Query for A375 human melanoma xenografts: what Tumor Size on PG-D21 does the record show for CCN(C)S(=O)(=O)Nc1ccc(F)c(Oc2ccc3ncn([C@H]4COC5(CCN(C6CC(c7cc8c(cc7F)c(N7CCC(=O)NC7=O)nn8C)C6)CC5)C4)c(=O)c3c2)c1C#N (single isomer, unassigned) ?
19 ± 2 mm^3

***
Provide value of Tumor Size on PG-D21 for this record tested with A375 human melanoma xenografts: CCN(C)S(=O)(=O)Nc1ccc(F)c(Oc2ccc3ncc([C@@H]4COC5(CCN(C6CCC(c7cc8c(cc7F)c(N7CCC(=O)NC7=O)nn8C)CC6)CC5)C4)nc3c2)c1C#N (single isomer, unassigned)
90 ± 27 mm^3

----------
Experiment: Pharmacokinetics in female BALB/c nude mice bearing A375 xenografts, 1 day dosing (PK and PD study): plasma, tumor and brain concentrations, AUC
Assay type: in vivo
Conditions: mouse, plasma, po, 5 mg/kg, 5 mg/kg p.o. BID × 1 day; post 1st dose; 4 h; read-out: Mean Concentration in Plasma ± SEM
Source text: The concentrations of Dabrafenib, Compound 26 and Compound 141 in the treatment of female BALB/c nude mice bearing A375 xenografts are shown in Table 62-Table 72 and FIG. 52-FIG. 73.
quantity_kind: concentration at 4 h (ng/mL)
Give just the number in ng/mL; leave the unit off.

Endpoint output: concentration at 4 h of CCN(C)S(=O)(=O)Nc1ccc(F)c(Oc2ccc3ncn(C4CC5(CCN(C6CC7(C6)CN(c6cc8c(cc6F)c(N6CCC(=O)NC6=O)nn8C)C7)CC5)C4)c(=O)c3c2)c1C#N (stereo not shown) . Value?
1220

----------
Assay: Pharmacokinetics after 21 days dosing in the efficacy study (plasma, tumor and brain concentrations; plasma AUC at steady state), Example 14
Format: in vivo, female BALB/c nude mice
Conditions: mouse, plasma, po; 100 mg/kg p.o. QD x 21 days; 0.5 h; mean ± SEM
quantity_kind: concentration at 0.5 h (ng/mL)
Numeric only. Scale: ng/mL

For CC(C)(C)c1nc(-c2cccc(NS(=O)(=O)c3c(F)cccc3F)c2F)c(-c2ccnc(N)n2)s1 [Dabrafenib, dabrafenib, reference compound] , what is its reported concentration at 0.5 h?
25700

----------
Biological target: BRAF V600E (Homo sapiens, UniProt P15056+Q96SW2, V600E)
Construct: knock-in of the HiBiT tag to the endogenous BRAF V600E locus; host or cells: A375.10 (A375 clonal line, CRISPR HiBiT knock-in at the endogenous BRAF V600E locus)
Experiment: BRAF V600E HiBiT Degradation Assay
Type: cell-based
Details: A375.10 cells, BRAF V600E, 6 hours; inflection point; read-out: HiBiT-Degradation A375.10 BRAF 6 hours IP
Reported DC50 values for the following molecules.

Answered cases to consult:
Request - read-out DC50 | tested on BRAF V600E (Homo sapiens, UniProt P15056+Q96SW2, V600E) | molecule Cn1nc(N2CCC(=O)NC2=O)c2cc(F)c(C3CCC(N4CCC5(CC4)CC(n4cnc6ccc(Oc7c(F)ccc(NS(=O)(=O)N8CC[C@@H](F)C8)c7C#N)cc6c4=O)C5)CC3)cc21 (single isomer, unassigned) [Compound 123]
< 1 µM

Notebook entry, BRAF V600E (Homo sapiens, UniProt P15056+Q96SW2, V600E) assay: DC50 of CCN(C)S(=O)(=O)Nc1ccc(F)c(Oc2ccc3ncc([C@@H]4COC5(CCN(C6CCC(c7cc8c(cc7F)c(N7CCC(=O)NC7=O)nn8C)CC6)CC5)C4)nc3c2)c1C#N (single isomer, unassigned) = ?
< 1 µM

// map CCN(C)S(=O)(=O)Nc1ccc(F)c(Oc2ccc3ncn(C4CC5(CCN(C6CC7(C6)CN(c6cc8c(cc6F)c(N6CCC(=O)NC6=O)nn8C)C7)CC5)C4)c(=O)c3c2)c1C#N (stereo not drawn) to recorded DC50 (system: BRAF V600E (Homo sapiens, UniProt P15056+Q96SW2, V600E))
< 1 µM

Give DC50 (BRAF V600E (Homo sapiens, UniProt P15056+Q96SW2, V600E)) of the following molecule: CCN(C)S(=O)(=O)Nc1ccc(F)c(Oc2ccc3ncn(C4CC5(CCN(C6CCC(c7cc8c(cc7F)c(N7CCC(=O)NC7=O)nn8C)CC6F)CC5)C4)c(=O)c3c2)c1C#N (single isomer, unassigned) [Compound 84]
< 1 µM

Further cases:
Query the reported DC50 for BRAF V600E (Homo sapiens, UniProt P15056+Q96SW2, V600E); item: CN(CCO)S(=O)(=O)Nc1ccc(F)c(Oc2ccc3ncn([C@H]4COC5(CCN(C6CCC(c7ccc(NC8CCC(=O)NC8=O)cc7F)CC6)CC5)C4)c(=O)c3c2)c1C#N (single isomer, unassigned)
< 1 µM

Under BRAF V600E (Homo sapiens, UniProt P15056+Q96SW2, V600E): DC50 value of CCN(C)S(=O)(=O)Nc1ccc(F)c(Oc2ccc3ncn([C@H]4COC5(CCC(N6CC7(CN(c8ccc(NC9CCC(=O)NC9=O)cc8F)C7)C6)CC5)C4)c(=O)c3c2)c1C#N (stereo partly drawn) ?
< 1 µM

API: value(readout=DC50, system=BRAF V600E (Homo sapiens, UniProt P15056+Q96SW2, V600E)) for record CN(CCO)S(=O)(=O)Nc1ccc(F)c(Oc2ccc3ncn(C4CC5(CCN(C6CCC(c7cc8c(cc7F)c(N7CCC(=O)NC7=O)nn8C)CC6)CC5)C4)c(=O)c3c2)c1C#N (single isomer, unassigned) [Compound 81]
< 1 µM

Form field: DC50 recorded for CCN(C)S(=O)(=O)Nc1ccc(F)c(Oc2ccc3ncn([C@H]4COC5(CCN(C6CCC(c7cc8c(cc7F)c(N7CCC(=O)NC7=O)nn8C)CC6O)CC5)C4)c(=O)c3c2)c1C#N (single isomer, unassigned) [Compound 45] with BRAF V600E (Homo sapiens, UniProt P15056+Q96SW2, V600E) (enter value)
< 1 µM

Return DC50 measured with BRAF V600E (Homo sapiens, UniProt P15056+Q96SW2, V600E) given this molecule: CO[C@@H]1CCN(S(=O)(=O)Nc2ccc(F)c(Oc3ccc4ncn(C5CC6(CCN(C7CCC(c8cc9c(cc8F)c(N8CCC(=O)NC8=O)nn9C)CC7)CC6)C5)c(=O)c4c3)c2C#N)C1 (single isomer, unassigned) [Compound 101]
< 1 µM

Cited source for all entries: patent US20260297060A1
